Hey, just so you know, these numbers are from patent US10259810B2.

- TESTED SYSTEM: CFTR ΔF508 (Homo sapiens, UniProt P13569, DEL508-508)
- Construct: bronchial epithelial cells isolated from CF patients homozygous for the CFTR ΔF508 mutation; McGill University; Asterand; University of North Carolina hAEC-CF; host or cells: primary human bronchial epithelial cells from CF patients homozygous for ΔF508, differentiated at air-liquid interface
- Sequence (P13569 with tags, fused parts or gaps DEL508-508): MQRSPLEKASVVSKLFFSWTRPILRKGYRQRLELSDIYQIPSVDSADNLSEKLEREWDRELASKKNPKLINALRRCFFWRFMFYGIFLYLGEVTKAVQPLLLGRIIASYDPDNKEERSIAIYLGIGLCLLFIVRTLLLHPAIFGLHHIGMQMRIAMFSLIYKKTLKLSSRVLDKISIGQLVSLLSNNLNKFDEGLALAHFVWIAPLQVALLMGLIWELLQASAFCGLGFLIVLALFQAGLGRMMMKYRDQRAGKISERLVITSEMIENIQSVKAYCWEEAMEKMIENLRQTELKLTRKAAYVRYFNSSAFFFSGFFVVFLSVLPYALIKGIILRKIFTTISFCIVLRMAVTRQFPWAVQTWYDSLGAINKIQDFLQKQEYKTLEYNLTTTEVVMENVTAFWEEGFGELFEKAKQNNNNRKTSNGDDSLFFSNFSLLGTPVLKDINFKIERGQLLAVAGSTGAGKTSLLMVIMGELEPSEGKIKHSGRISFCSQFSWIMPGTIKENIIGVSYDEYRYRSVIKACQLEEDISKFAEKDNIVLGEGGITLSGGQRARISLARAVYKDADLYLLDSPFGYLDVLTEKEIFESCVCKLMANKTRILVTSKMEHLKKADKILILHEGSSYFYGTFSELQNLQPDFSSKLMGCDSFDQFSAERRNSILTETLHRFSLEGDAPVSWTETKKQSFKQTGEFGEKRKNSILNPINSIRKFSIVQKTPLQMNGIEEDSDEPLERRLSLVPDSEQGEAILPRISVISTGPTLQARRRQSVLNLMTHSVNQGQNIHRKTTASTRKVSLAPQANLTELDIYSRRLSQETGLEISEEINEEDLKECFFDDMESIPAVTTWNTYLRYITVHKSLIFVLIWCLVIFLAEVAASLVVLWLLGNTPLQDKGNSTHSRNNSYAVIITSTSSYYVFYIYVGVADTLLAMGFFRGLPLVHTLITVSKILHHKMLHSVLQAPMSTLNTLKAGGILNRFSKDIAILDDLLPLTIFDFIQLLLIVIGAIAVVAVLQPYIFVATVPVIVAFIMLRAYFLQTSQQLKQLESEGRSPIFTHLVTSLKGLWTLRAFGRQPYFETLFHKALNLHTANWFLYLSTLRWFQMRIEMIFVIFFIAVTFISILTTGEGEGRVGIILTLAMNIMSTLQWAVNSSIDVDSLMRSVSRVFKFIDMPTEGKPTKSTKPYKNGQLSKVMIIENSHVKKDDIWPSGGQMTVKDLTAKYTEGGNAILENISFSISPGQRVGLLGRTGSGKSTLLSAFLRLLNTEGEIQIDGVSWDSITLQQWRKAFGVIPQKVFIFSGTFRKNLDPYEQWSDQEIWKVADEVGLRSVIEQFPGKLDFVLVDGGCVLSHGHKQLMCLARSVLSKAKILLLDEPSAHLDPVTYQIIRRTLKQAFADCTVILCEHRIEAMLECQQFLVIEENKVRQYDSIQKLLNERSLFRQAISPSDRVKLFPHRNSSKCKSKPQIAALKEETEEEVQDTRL
- TEST SUMMARY: Chronic TECC assay, primary bronchial epithelial cells of CF patients homozygous for CFTR ΔF508 (corrector, co-corrector and potentiator)
- Format: cell-based
- CONDITIONS: chronic TECC; test compound at 1 μM; AUC = full area under the curve upon forskolin stimulation
- Procedure: Primary Bronchial Epithelial Cells Protocol The TECC (Tranepithelial Clamp Circuit, EP-design) assay measures the functionality of the cystic fibrosis Transmembrane Conductance regulator (CFTR) by measuring the short circuit current (Isc) generated over the basolateral and apical membrane of lung epithelial cells. In TECC the transepithelial potential PD and transepithelial resistance (Rt) are measured in an open circuit and transformed to Ieq using Ohm's law. […]

COMPOUND	TESTED SYSTEM	% Activity at 1 μM (AUC**)
COCC1CCN(c2cc(C(=O)NS(C)(=O)=O)nc3c2c(C(C)C)nn3-c2ccc(F)cc2)CC1	CFTR ΔF508 (Homo sapiens, UniProt P13569, DEL508-508)	282.45%
COC1CCN(c2cc(C(=O)NS(C)(=O)=O)nc3c2c(C(C)C)nn3-c2ccnc(N3CCCC3)c2)CC1	CFTR ΔF508 (Homo sapiens, UniProt P13569, DEL508-508)	257.3%
CC(C)c1nn(-c2ccc(F)cc2)c2nc(C(=O)NS(C)(=O)=O)cc(N3CCC(C(C)(C)O)CC3)c12	CFTR ΔF508 (Homo sapiens, UniProt P13569, DEL508-508)	194.54%
CN(C)S(=O)(=O)NC(=O)c1cc(N2CCC(N3CCN(C4CC4)CC3)CC2)c2c(C3CCC3)nn(-c3ccccc3)c2n1	CFTR ΔF508 (Homo sapiens, UniProt P13569, DEL508-508)	373.3333%
CS(=O)(=O)NC(=O)c1cc(OCC2CCOCC2)c2c(C3CCC3)nn(-c3ccc(F)cc3)c2n1	CFTR ΔF508 (Homo sapiens, UniProt P13569, DEL508-508)	439.94%
CC(C)(O)C1CCN(c2cc(C(=O)NS(C)(=O)=O)nc3c2c(C2CCC2)nn3-c2ccccc2)CC1	CFTR ΔF508 (Homo sapiens, UniProt P13569, DEL508-508)	311.08%
COCC1CCN(c2cc(C(=O)NS(=O)(=O)c3cn(C)c(C)n3)nc3c2c(C2CCC2)nn3-c2ccccc2)CC1	CFTR ΔF508 (Homo sapiens, UniProt P13569, DEL508-508)	331.21%
